Sourced from paper PMC3264756

system-tested: acetyl-CoA carboxylase (TbACC) (Trypanosoma brucei, UniProt Q57YR7)
measured-attribute: EC50
Report the figure along with its unit, number first.

Q) State its EC50: CC(Oc1ccc(Oc2ncc(C(F)(F)F)cc2Cl)cc1)C(=O)O (stereo not shown)
A) 67 µM
